# key: entry, value: IC50
molecular target: Fatty acid synthase (Homo sapiens); experiment: FAS thioesterase domain inhibitors, dose response, biochemical, endpoint fluorescence intensity, uHTS hits (AID 624327); format: functional;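 note: fluorescence from hydrolysis of an O-methyl fluorescein acyl ester substrate by the enzyme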
Sequence (P49327 whole entry, the tested form may be a part): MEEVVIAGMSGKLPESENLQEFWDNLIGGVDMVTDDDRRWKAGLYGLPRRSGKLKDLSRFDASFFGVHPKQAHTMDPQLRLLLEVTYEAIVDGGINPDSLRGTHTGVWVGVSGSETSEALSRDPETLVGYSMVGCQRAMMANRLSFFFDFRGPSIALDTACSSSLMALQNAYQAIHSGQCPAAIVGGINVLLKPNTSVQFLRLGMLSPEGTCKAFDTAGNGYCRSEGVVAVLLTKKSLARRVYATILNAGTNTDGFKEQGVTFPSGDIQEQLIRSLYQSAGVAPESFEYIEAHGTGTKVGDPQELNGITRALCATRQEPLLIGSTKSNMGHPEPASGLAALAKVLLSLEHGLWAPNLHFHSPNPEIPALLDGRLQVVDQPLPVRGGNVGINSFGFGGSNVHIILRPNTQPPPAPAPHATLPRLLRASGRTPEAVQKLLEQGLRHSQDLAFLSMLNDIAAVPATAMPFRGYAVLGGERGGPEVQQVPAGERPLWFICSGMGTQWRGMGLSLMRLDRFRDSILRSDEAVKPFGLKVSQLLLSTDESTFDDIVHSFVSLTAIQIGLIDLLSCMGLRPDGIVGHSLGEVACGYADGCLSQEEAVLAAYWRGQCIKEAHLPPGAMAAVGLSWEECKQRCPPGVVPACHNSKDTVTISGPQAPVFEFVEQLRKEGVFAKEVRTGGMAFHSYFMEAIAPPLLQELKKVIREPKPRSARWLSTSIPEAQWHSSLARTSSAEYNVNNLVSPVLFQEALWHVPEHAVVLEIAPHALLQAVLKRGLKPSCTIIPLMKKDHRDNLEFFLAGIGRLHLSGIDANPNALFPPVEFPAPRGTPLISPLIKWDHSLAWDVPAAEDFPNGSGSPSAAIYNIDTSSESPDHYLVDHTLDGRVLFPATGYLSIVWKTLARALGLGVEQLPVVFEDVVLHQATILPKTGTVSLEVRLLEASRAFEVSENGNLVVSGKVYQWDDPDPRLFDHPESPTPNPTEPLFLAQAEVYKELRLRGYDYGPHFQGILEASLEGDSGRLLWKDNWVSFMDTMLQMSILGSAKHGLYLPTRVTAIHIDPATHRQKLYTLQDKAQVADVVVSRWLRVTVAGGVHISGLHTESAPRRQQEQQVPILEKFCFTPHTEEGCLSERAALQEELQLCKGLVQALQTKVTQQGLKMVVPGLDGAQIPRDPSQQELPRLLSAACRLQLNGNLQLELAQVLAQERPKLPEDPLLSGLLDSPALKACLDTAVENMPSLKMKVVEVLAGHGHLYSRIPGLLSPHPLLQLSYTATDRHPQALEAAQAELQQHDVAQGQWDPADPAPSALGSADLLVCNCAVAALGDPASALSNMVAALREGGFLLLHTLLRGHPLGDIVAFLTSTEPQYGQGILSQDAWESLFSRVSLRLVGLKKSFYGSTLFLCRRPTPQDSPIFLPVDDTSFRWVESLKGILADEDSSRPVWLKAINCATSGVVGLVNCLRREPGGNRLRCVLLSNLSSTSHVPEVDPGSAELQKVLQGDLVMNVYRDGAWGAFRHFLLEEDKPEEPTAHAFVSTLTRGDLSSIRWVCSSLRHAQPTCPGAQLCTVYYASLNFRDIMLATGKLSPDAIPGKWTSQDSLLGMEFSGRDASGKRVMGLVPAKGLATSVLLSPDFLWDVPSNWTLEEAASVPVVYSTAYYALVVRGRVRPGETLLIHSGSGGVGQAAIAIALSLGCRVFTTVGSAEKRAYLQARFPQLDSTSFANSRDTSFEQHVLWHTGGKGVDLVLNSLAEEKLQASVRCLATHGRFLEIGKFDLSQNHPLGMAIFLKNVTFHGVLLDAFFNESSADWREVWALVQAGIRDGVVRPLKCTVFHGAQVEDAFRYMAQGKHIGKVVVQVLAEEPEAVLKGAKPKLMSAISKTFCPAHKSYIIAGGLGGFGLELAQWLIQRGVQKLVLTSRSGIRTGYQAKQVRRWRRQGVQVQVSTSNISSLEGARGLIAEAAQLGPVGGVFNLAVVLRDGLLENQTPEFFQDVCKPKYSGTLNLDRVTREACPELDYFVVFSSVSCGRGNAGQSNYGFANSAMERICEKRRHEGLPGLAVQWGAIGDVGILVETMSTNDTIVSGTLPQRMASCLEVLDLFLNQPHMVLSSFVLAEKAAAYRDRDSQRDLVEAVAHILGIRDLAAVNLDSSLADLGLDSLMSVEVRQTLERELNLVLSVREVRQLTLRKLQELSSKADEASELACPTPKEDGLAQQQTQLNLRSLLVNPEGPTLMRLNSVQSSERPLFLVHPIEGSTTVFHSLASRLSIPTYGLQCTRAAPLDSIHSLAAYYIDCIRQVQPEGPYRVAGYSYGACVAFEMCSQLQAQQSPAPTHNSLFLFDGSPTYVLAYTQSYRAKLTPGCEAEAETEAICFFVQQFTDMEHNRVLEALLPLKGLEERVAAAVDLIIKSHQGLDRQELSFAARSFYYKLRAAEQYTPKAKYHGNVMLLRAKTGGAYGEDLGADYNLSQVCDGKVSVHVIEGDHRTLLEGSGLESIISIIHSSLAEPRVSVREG
The source made the active and inactive calls. Cut-off read from the data, not from the text of the source: active = IC50 of 20 µM or less and inactive = more.

Worked examples, 3 compounds total:
GIVEN_SMILES: Cc1cccn2c(=O)c(/C=C(\C#N)C(N)=O)c(N3CCN(Cc4ccc5c(c4)OCO5)CC3)nc12
IC50: 7.79 µM (active)
--
GIVEN_SMILES: O=C(Nc1ccc(F)cc1)c1nc(S(=O)(=O)Cc2ccccc2)ncc1Cl
IC50: 13.4 µM (active)
--
GIVEN_SMILES: CCOc1ccc(-n2c(SCc3ccc([N+](=O)[O-])cc3)nnc2-c2ccccc2)cc1
IC50: 6.83 µM (active)

Input: Recorded IC50 of `O=C(COC(=O)c1cc([N+](=O)[O-])ccc1N1CCOCC1)c1ccc(F)cc1` , please.
Output: 5.45 µM (active)

Input: Please give the measured IC50 for this compound: `O=C(NCc1ccc(F)cc1)C(C(=O)NCc1ccc(F)cc1)c1ncc(C(F)(F)F)cc1Cl`
Output: 7.79 µM (active)

Input: For the compound shown here, `O=[N+]([O-])c1ccc(Sc2n[nH]c(-c3ccc(Cl)cc3Cl)n2)nc1` , give the reported IC50.
Output: 7.15 µM (active)
